Provenance of the data: patent US20220185900A1

# TESTED_TARGET: human RET on cells (MCF7/SRE-Luc; HEK293/hGFRα3/hRET/SRE-Luc; HEK293/hGFRα1/hRET/SRE-Luc) (human), P07949
# ASSAY_INFO: cell-based or functional assay
MEASURED_ATTRIBUTE: 293/hGFRα3/hRET/SRE-Luc IC50 (nM)
API: value field is a number in nM; no unit string.

1. H4H8087P (antibody, human IgG4, V domains shown) VH: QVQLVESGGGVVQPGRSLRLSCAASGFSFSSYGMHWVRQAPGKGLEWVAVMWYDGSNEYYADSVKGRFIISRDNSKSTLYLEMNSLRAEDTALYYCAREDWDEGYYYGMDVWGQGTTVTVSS VL: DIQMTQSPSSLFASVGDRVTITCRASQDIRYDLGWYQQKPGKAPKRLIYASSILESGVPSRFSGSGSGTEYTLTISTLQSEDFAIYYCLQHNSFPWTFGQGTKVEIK ... 0.25

Input line: For the binder H4H8045P (antibody, human IgG4, V domains shown) VH: EVQLVESGGALVQPGGSLRLSCAASGFTFSNYAMTWVRQAPGMGLEWVSGISSSGASTFYADSVKGRFTISRDNSKNTLYLQMNSLRAEDTAVYYCAKEDYWGWFDYWGQGTLVTVSS VL: DIQLTQSPSFLSASVGDRVTITCWASQDVSSYLAWYQQEPGKAPKVLIYDASTLQSGVPSRFSGSGSGTEFTLTISSLQPEDFAPYYCQQLNSYPYTFGQGTKLEIK , give its measured 293/hGFRα3/hRET/SRE-Luc IC50 value.
Output line: 0.42
